Origin of the recorded values: paper PMC6722883

# assayContext: buffer or solvent
propertyLabel: remaining at 8 h (%)
API: value field is a number in %; no unit string.

Query remaining at 8 h for CC[C@H](C)[C@@H]1NC(=O)[C@@H]2CCCN2C(=O)[C@H](CO)NC(=O)[C@H](CCSC)NC(=O)[C@H](C)NC(=O)[C@H](CO)NC(=O)[C@@H]2CSSC[C@H](NC(=O)CN)C(=O)N[C@@H](CSSC[C@@H](C(N)=O)NC1=O)C(=O)N[C@@H](CO)C(=O)N[C@@H](Cc1cnc[nH]1)C(=O)N1CCC[C@H]1C(=O)N[C@@H](C(C)C)C(=O)N2 [TxID, α‐Conotoxin TxID]
36
